Parameter koff: see the listing below.
target desc: feline FcRn (FCN-F82W3, Acrobiosystems) (feline)
assay procedure: SPR Carterra, IgG coupled, pH 6.0
Numbers only here, please. The scale is s⁻¹.

anti-NGF feline IgG1a, Fc variant S252Y, Q311K (antibody, part only; not given: anti-NGF variable domains, light chain, not shown: another chain or arm of the molecule; small tags and cut ends) Fc: PPEMLGGPSIFIFPPKPKDTLYISRTPEVTCLVVDLGPDDSDVQITWFVDNTQVYTAKTSPREEQFNSTYRVVSVLPILHKDWLKGKEFKCKVNSKSLPSPIERTISKAKGQPHEPQVYVLPPAQEELSRNKVSVTCLIKSFHPPDIAVEWEITGQPEPENNYRTTPPQLDSDGTYFVYSKLSVDRSHWQRGNTYTCSVSHEALHSHHTQKSLTQSPGK
0.00779

Recorded koff for anti-NGF feline IgG1a, Fc variant S428L, N389c-R (antibody, part only; not given: anti-NGF variable domains, light chain, not shown: another chain or arm of the molecule; small tags and cut ends) Fc: PPEMLGGPSIFIFPPKPKDTLSISRTPEVTCLVVDLGPDDSDVQITWFVDNTQVYTAKTSPREEQFNSTYRVVSVLPILHQDWLKGKEFKCKVNSKSLPSPIERTISKAKGQPHEPQVYVLPPAQEELSRNKVSVTCLIKSFHPPDIAVEWEITGQPEPERNYRTTPPQLDSDGTYFVYSKLSVDRSHWQRGNTYTCSVLHEALHSHHTQKSLTQSPGK , please? 0.0109

One more binder: anti-NGF feline IgG1a, Fc variant S434Y, T286E (antibody, part only; not given: anti-NGF variable domains, light chain, not shown: another chain or arm of the molecule; small tags and cut ends) Fc: PPEMLGGPSIFIFPPKPKDTLSISRTPEVTCLVVDLGPDDSDVQITWFVDNTQVYEAKTSPREEQFNSTYRVVSVLPILHQDWLKGKEFKCKVNSKSLPSPIERTISKAKGQPHEPQVYVLPPAQEELSRNKVSVTCLIKSFHPPDIAVEWEITGQPEPENNYRTTPPQLDSDGTYFVYSKLSVDRSHWQRGNTYTCSVSHEALHYHHTQKSLTQSPGK 0.00345

One more binder: anti-NGF feline IgG1a, Fc variant E380T (antibody, part only; not given: anti-NGF variable domains, not shown: another chain or arm of the molecule; small tags and cut ends) Fc: PPEMLGGPSIFIFPPKPKDTLSISRTPEVTCLVVDLGPDDSDVQITWFVDNTQVYTAKTSPREEQFNSTYRVVSVLPILHQDWLKGKEFKCKVNSKSLPSPIERTISKAKGQPHEPQVYVLPPAQEELSRNKVSVTCLIKSFHPPDIAVTWEITGQPEPENNYRTTPPQLDSDGTYFVYSKLSVDRSHWQRGNTYTCSVSHEALHSHHTQKSLTQSPGK 0.062

One more binder: anti-NGF feline IgG1a, Fc variant L309Y (antibody, part only; not given: anti-NGF variable domains, light chain, not shown: another chain or arm of the molecule; small tags and cut ends) Fc: PPEMLGGPSIFIFPPKPKDTLSISRTPEVTCLVVDLGPDDSDVQITWFVDNTQVYTAKTSPREEQFNSTYRVVSVLPIYHQDWLKGKEFKCKVNSKSLPSPIERTISKAKGQPHEPQVYVLPPAQEELSRNKVSVTCLIKSFHPPDIAVEWEITGQPEPENNYRTTPPQLDSDGTYFVYSKLSVDRSHWQRGNTYTCSVSHEALHSHHTQKSLTQSPGK 0.118

Values were extracted from patent US20250304650A1.
